# TARGET_OR_TEST_SYSTEM: human insulin receptor (HIR) (human, UniProt P06213)
# PROCEDURE_TEXT: competition

>  <BINDER>
S374 (not fully specified; listing feature) chain 1: XGSLDESFYDWFERQLGKK chain 2: XGSLDESFYDWFERQLGKK

>  <RESULT_UNIT>
nM

>  <Kd>
180

$$$$
>  <BINDER>
GSLDESFYDWFERQLGKK [S371 (RP9)]

>  <RESULT_UNIT>
nM

>  <Kd>
830

$$$$
